Assay: Half-life of compound in plasma of dog was determined
Format: ADME, organism-based, Canis lupus familiaris
observable: half-life

Task: For "Cc1cc(C)cc(-c2[nH]c3ccc(C(C)(C)C(=O)N4CC5CCC4CC5)cc3c2[C@H](C)CNCCc2ccnc(CO)c2)c1" , what is its reported half-life?
Output: 2 h

---

Target: Gonadotropin-releasing hormone receptor (Homo sapiens, UniProt P30968)
Assay: Concentration required for the inhibition of phosphatidyl inositol hydrolysis in chinese hamster ovary cells expressing human GnRH receptor (Gonadotropin Release Hormone receptor)
Assay type: functional, cell-based
Provide the reported pIC50 of each item.
Answers are plain numbers, as −log10 of the molar value.

Reference set, count: 6
Task: I would be grateful if you could share the reported pIC50 for "COCc1cc(CCNC[C@@H](C)c2c(-c3cc(C)cc(C)c3)[nH]c3ccc(C(C)(C)C(=O)N4CC5CCC4CC5)cc23)ccn1" .
Output: 7.26

Task: Which measured pIC50 value corresponds to "Cc1cc(C)cc(-c2[nH]c3ccc(C(C)(C)C(=O)N4CC5CCC4CC5)cc3c2[C@H](C)CNCCc2ccncc2C)c1" ?
Output: 7.32

Task: Give its pIC50 value. Item: Cc1cc(C)cc(-c2[nH]c3ccc(C(C)(C)C(=O)N4CC5CCC4CC5)cc3c2[C@H](C)CNCCc2ccnc(C(C)O)c2)c1 (some centres not stated)
Output: 7.70

Task: Look up pIC50 for this compound: "Cc1cc(C)cc(-c2[nH]c3ccc(C(C)(C)C(=O)N4CC5CCC4CC5)cc3c2[C@H](C)CNCCc2cc(C)nc(C)c2)c1"
Output: 7.62

Task: Query: pIC50; subject: "COC(=O)c1cc(CCNC[C@@H](C)c2c(-c3cc(C)cc(C)c3)[nH]c3ccc(C(C)(C)C(=O)N4CC5CCC4CC5)cc23)ccn1"
Output: 7.60

Task: What pIC50 value was documented for this compound, "Cc1cc(C)cc(-c2[nH]c3ccc(C(C)(C)C(=O)N4CC5CCC4CC5)cc3c2[C@H](C)CNCCc2cc(C)[n+]([O-])c(C)c2)c1" ?
Output: 8.00

Turning now to a further record.
Task: Which pIC50 is reported for this compound? "Cc1cc(C)cc(-c2[nH]c3ccc(C(C)(C)C(=O)N4CC5CCC4CC5)cc3c2[C@H](C)CNCCc2cc[n+]([O-])cc2)c1"
Output: 8.19

---

Biological target: Gonadotropin-releasing hormone receptor (Homo sapiens)
Assay: Concentration required for the inhibition of phosphatidyl inositol hydrolysis in chinese hamster ovary cells expressing human GnRH receptor (Gonadotropin Release Hormone receptor)
Format: functional, cell-based
observable: pIC50
Give bare numbers, as −log10 of the molar value.

Example cases with answers are listed next.
Task: pIC50 lookup needed for "Cc1cc(C)cc(-c2[nH]c3ccc(C(C)(C)C(=O)N4CC5CCC4CC5)cc3c2[C@H](C)CNCCc2ccnc(C(C)(C)O)c2)c1" , thanks.
Output: 6.97

Task: Requested read-out: pIC50. Entry: "Cc1cc(C)cc(-c2[nH]c3ccc(C(C)(C)C(=O)N4CC5CCC4CC5)cc3c2[C@H](C)CNCCc2cc[n+]([O-])c(C)c2)c1"
Output: 8.23

Task: Report pIC50 for "CCCc1cc(CCNC[C@@H](C)c2c(-c3cc(C)cc(C)c3)[nH]c3ccc(C(C)(C)C(=O)N4CC5CCC4CC5)cc23)ccn1" please.
Output: 7.21

Continuing:
Task: Using the record for "Cc1cc(C)cc(-c2[nH]c3ccc(C(C)(C)C(=O)N4CC5CCC4CC5)cc3c2[C@H](C)CNCCc2ccnc(C#N)c2)c1" , report its pIC50.
Output: 7.96

---

Biological target: Gonadotropin-releasing hormone receptor (Homo sapiens, UniProt P30968)
Sequence (P30968 whole entry): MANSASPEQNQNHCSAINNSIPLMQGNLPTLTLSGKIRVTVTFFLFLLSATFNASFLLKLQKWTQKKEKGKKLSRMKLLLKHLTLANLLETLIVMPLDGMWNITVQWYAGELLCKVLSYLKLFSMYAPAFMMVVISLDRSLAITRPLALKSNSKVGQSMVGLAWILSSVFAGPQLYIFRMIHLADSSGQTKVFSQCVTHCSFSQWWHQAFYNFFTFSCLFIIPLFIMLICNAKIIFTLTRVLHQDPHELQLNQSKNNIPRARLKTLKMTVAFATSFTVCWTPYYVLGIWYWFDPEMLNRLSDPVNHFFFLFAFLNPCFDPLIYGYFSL
Assay: Concentration required for the inhibition of I-125 labeled buserelin binding to the human Gonadotropin-releasing hormone receptor
observable: IC50 (nM)
One number for each entry, in nM.

Would you please look over these solved cases?
Task: Query for Gonadotropin-releasing hormone receptor (Homo sapiens, UniProt P30968): what IC50 does the record show for Cc1cc(C)cc(-c2[nH]c3ccc(C(C)(C)C(=O)N4CC5CCC4CC5)cc3c2[C@H](C)CNCCc2ccnc(C(C)O)c2)c1 (some centres undefined) ?
Output: 0.6

Task: # query: IC50 | item "Cc1cc(C)cc(-c2[nH]c3ccc(C(C)(C)C(=O)N4CC5CCC4CC5)cc3c2[C@H](C)CNCCc2ccnc(C(=O)O)c2)c1" | system: Gonadotropin-releasing hormone receptor (Homo sapiens, UniProt P30968)
Output: 8.2

Task: Please tell me: IC50 of "COC(=O)c1cc(CCNC[C@@H](C)c2c(-c3cc(C)cc(C)c3)[nH]c3ccc(C(C)(C)C(=O)N4CC5CCC4CC5)cc23)ccn1" , system Gonadotropin-releasing hormone receptor (Homo sapiens, UniProt P30968)?
Output: 0.9

Now consider the entry below.
Task: What measured IC50 is associated with "Cc1cc(C)cc(-c2[nH]c3ccc(C(C)(C)C(=O)N4CC5CCC4CC5)cc3c2[C@H](C)CNCCc2ccnc(CO)c2)c1" on Gonadotropin-releasing hormone receptor (Homo sapiens, UniProt P30968)?
Output: 0.4

---

Consider the following compounds; for each one, report its IC50.
Molecular target: UniProtKB P30968
Test: Concentration required for the inhibition of I-125 labeled buserelin binding to the human Gonadotropin-releasing hormone receptor
Numbers only, in nM.

Task: Form field: IC50 recorded for "Cc1cc(C)cc(-c2[nH]c3ccc(C(C)(C)C(=O)N4CC5CCC4CC5)cc3c2[C@H](C)CNCCc2ccnc(C)c2)c1" with UniProtKB P30968 (enter value)
Output: 0.9

Task: So what IC50 did "Cc1cc(C)cc(-c2[nH]c3ccc(C(C)(C)C(=O)N4CC5CCC4CC5)cc3c2[C@H](C)CNCCc2ccnc(C#N)c2)c1" get with UniProtKB P30968?
Output: 0.7

Task: Any idea what IC50 came out for "Cc1cc(C)cc(-c2[nH]c3ccc(C(C)(C)C(=O)N4CC5CCC4CC5)cc3c2[C@H](C)CNCCc2cc[n+]([O-])c(C)c2)c1" on UniProtKB P30968?
Output: 0.3

Task: Value wanted: IC50 (UniProtKB P30968) of entry "CCCc1cc(CCNC[C@@H](C)c2c(-c3cc(C)cc(C)c3)[nH]c3ccc(C(C)(C)C(=O)N4CC5CCC4CC5)cc23)ccn1"
Output: 4.6

Task: Find IC50 (UniProtKB P30968) for the entry "Cc1cc(C)cc(-c2[nH]c3ccc(C(C)(C)C(=O)N4CC5CCC4CC5)cc3c2[C@H](C)CNCCc2cc(C)nc(C)c2)c1"
Output: 0.4

State the recorded IC50 for every item in the following list.
1. Cc1cc(C)cc(-c2[nH]c3ccc(C(C)(C)C(=O)N4CC5CCC4CC5)cc3c2[C@H](C)CNCCc2cc[n+]([O-])cc2C)c1
2. COCc1cc(CCNC[C@@H](C)c2c(-c3cc(C)cc(C)c3)[nH]c3ccc(C(C)(C)C(=O)N4CC5CCC4CC5)cc23)ccn1

Output:
[0.8, 0.7]

---

Test: Half-life of compound was determined in dogs
Assay type: ADME, organism-based, Canis lupus familiaris
Conditions: dog, in vivo
Answer each item with its documented half-life.
Answers are plain numbers, in h.

Task: Entry under review: "Cc1cc(C)cc(-c2[nH]c3ccc(C(C)(C)C(=O)N4CC5CCC4CC5)cc3c2[C@H](C)CNCCc2cc(C)[n+]([O-])c(C)c2)c1" . Reported half-life?
Output: 7

Now for a further compound.
Task: Which half-life value belongs to "Cc1cc(C)cc(-c2[nH]c3ccc(C(C)(C)C(=O)N4CC5CCC4CC5)cc3c2[C@H](C)CNCCc2cc[n+]([O-])c(C)c2)c1" ?
Output: 5

---

Assay: Oral bioavailability in dog
Type: ADME, organism-based, Canis lupus familiaris
Conditions: in vivo
observable: bioavailability

Look at each molecule and report its bioavailability.
1. Cc1cc(C)cc(-c2[nH]c3ccc(C(C)(C)C(=O)N4CC5CCC4CC5)cc3c2[C@H](C)CNCCc2cc[n+]([O-])c(C)c2)c1
2. Cc1cc(C)cc(-c2[nH]c3ccc(C(C)(C)C(=O)N4CC5CCC4CC5)cc3c2[C@H](C)CNCCc2ccnc(C)c2)c1
3. Cc1cc(C)cc(-c2[nH]c3ccc(C(C)(C)C(=O)N4CC5CCC4CC5)cc3c2[C@H](C)CNCCc2cc[n+]([O-])cc2)c1
4. Cc1cc(C)cc(-c2[nH]c3ccc(C(C)(C)C(=O)N4CC5CCC4CC5)cc3c2[C@H](C)CNCCc2ccnc(CO)c2)c1
5. Cc1cc(C)cc(-c2[nH]c3ccc(C(C)(C)C(=O)N4CC5CCC4CC5)cc3c2[C@H](C)CNCCc2cc(C)[n+]([O-])c(C)c2)c1

Output:
25%
36%
14%
15%
29%
